Assignment: determine reported koff for the given binders.
- MEASUREMENT TARGET: Recombinant human his-tagged IGF 1R extracellular domain protein (human) (UniProt P08069)
- EXPERIMENTAL PROTOCOL: SPR, captured IgG, IGF-1R ECD-his analyte, dissociation pH 7.4
State just the number; it will be interpreted in s⁻¹.

Reported koff for VRDN-02565 (antibody, V domains shown) VH: EVQLVQSGGGLVKPGGSLRLSCAASGFTFSSFAMHWVRQAPGKGLEWISVIDTRGATYYADSVKGRFTISRDNAKNSLYLQMNSLRAEDTAVYYCHRLGNFYYHMDVWGQGTTVTVSS VL: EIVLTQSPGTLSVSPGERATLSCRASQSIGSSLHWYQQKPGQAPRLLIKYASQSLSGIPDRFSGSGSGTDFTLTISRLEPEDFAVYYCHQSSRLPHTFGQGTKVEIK was 0.0243

Data point: VRDN-02524 (antibody, V domains shown) VH: EVQLVQSGGGLVKPGGSLRLSCAASGFTFSSFAMHWVRQAPGKGLEWISVIDTRGATYYADSVKGRFTISRDNAKNSLYLQMNSLRAEDTAVYYCARLGNFYYHMDVWGQGTTVTVSS VL: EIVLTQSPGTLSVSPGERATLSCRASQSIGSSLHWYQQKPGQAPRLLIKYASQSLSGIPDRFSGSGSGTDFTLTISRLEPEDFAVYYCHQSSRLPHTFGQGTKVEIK ; koff = 1e-06

Field koff (entry VRDN-02551 (antibody, V domains shown) VH: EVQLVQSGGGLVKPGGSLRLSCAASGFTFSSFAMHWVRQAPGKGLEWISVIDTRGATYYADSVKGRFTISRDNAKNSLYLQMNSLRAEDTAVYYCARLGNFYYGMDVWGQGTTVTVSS VL: EIVLTQSPGTLSVSPGERATLSCRASQSIGSSLHWYQQKPGQAPRLLIKYASQSLSGIPDRFSGSGSGTDFTLTISRLEPEDFAVYYCHQSSRLHHTFGQGTKVEIK ) reads 6.38e-05

For record VRDN-02542 (antibody, V domains shown) VH: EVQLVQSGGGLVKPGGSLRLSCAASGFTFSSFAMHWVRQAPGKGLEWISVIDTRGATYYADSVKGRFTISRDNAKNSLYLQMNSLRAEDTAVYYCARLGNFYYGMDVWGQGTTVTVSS VL: EIVLTQSPGTLSVSPGERATLSCRASQSIGSSLHWYQQKPGQAPRLLIKYASHSLSGIPDRFSGSGSGTDFTLTISRLEPEDFAVYYCHQSSRLPHTFGQGTKVEIK the listed koff is 1e-06
